targetUnderTest: HCV NS3 protease (Hepatitis C virus genotype 1b, UniProt P26663)
Construct: an NS3/4A complex comprising the NS3 protease domain
Sequence (P26663 1027-1208, other chains not shown): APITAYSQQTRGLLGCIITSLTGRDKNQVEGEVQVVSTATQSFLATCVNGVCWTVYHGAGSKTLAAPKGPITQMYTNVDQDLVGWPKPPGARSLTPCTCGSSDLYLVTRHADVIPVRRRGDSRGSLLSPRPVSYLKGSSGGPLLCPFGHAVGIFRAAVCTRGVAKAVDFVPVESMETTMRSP
assayNotes: Inhibition of NS3 protease (HPLC cleavage assay, NS3/4A complex with Pep4AK, substrate peptide 4AB)
Type: biochemical
conditionNotes: Table 1 hexapeptides, cells printed in nM; read-out: IC50
Square brackets hold non-standard residues; d marks the D form. Peptide text beside a SMILES is read from it. * marks the point of attachment. Dip = N[C@H](C(=O)O)C(c1ccccc1)c1ccccc1; X8 = O=C(c1nc2ccccc2o1)C(CC(F)F)N*; Cha = N[C@@H](CC1CCCCC1)C(=O)O; X4 = COC(=O)C(=O)C(CC(F)F)N*
Would you kindly list IC50 for each of these compounds?
Expressed in nM, but write only the number.

Give HCV NS3 protease (Hepatitis C virus genotype 1b, UniProt P26663) IC50 for CC(=O)N[C@@H](CC(=O)O)C(=O)N[C@@H](CCC(=O)O)C(=O)N[C@H](C(=O)N[C@@H](CCC(=O)O)C(=O)N[C@@H](CC1CCCCC1)C(=O)NC(CC(F)F)C(=O)c1nc2ccccc2o1)C(c1ccccc1)c1ccccc1 (stereo partly drawn) [Compound 1j] (Ac-DE[Dip]E[Cha]-X8) 600

Enter reported IC50 observed with HCV NS3 protease (Hepatitis C virus genotype 1b, UniProt P26663) for CC(=O)N[C@@H](CC(=O)O)C(=O)N[C@@H](CCC(=O)O)C(=O)N[C@H](C(=O)N[C@@H](CCC(=O)O)C(=O)N[C@@H](CC1CCCCC1)C(=O)NC(C=O)CC(F)F)C(c1ccccc1)c1ccccc1 (single isomer, unassigned) [Compound 1c (L)] 0.5

Request - read-out IC50 | tested on HCV NS3 protease (Hepatitis C virus genotype 1b, UniProt P26663) | compound COC(=O)C(=O)C(CC(F)F)NC(=O)[C@H](CC1CCCCC1)NC(=O)[C@H](CCC(=O)O)NC(=O)[C@@H](NC(=O)[C@H](CCC(=O)O)NC(=O)[C@H](CC(=O)O)NC(C)=O)C(c1ccccc1)c1ccccc1 (stereo partly drawn) [Compound 1f] (Ac-DE[Dip]E[Cha]-X4) 800

* * *

targetUnderTest: HCV NS3 protease (Hepatitis C virus genotype 1b)
Construct: an NS3/4A complex comprising the NS3 protease domain
assayNotes: Inhibition of NS3 protease (HPLC cleavage assay, NS3/4A complex with Pep4AK, substrate peptide 4AB)
Assay type: biochemical
property: IC50 (µM)
Report the figure in µM without appending any unit label.

Give HCV NS3 protease (Hepatitis C virus genotype 1b) IC50 for CC(C)C[C@H](NC(=O)CC(CC(=O)O)c1ccccc1)C(=O)NC(CC(F)F)C(=O)C(=O)O (mixture of isomers) [Compound 7j] 26

* * *

Assignment: determine reported IC50 for the given compounds.
targetUnderTest: HCV NS3 protease (Hepatitis C virus genotype 1b)
Construct: an NS3/4A complex comprising the NS3 protease domain
assayNotes: Inhibition of NS3 protease (HPLC cleavage assay, NS3/4A complex with Pep4AK, substrate peptide 4AB)
Format: biochemical
conditionNotes: Table 1 hexapeptides, cells printed in μM; read-out: IC50
Square brackets hold non-standard residues; d marks the D form. Peptide text beside a SMILES is read from it. * marks the point of attachment. Dip = N[C@H](C(=O)O)C(c1ccccc1)c1ccccc1; X1 = O=C(c1ncc[nH]1)C(CC(F)F)N*; Cha = N[C@@H](CC1CCCCC1)C(=O)O; X2 = O=C(c1ccco1)C(CC(F)F)N*; X7 = O=C(c1nccs1)C(CC(F)F)N*; X9 = O=C(O)CC(CC(F)F)N*
Field: value (include unit after the number)

Need IC50, item CC(=O)N[C@@H](CC(=O)O)C(=O)N[C@@H](CCC(=O)O)C(=O)N[C@H](C(=O)N[C@@H](CCC(=O)O)C(=O)N[C@@H](CC1CCCCC1)C(=O)NC(CC(=O)O)CC(F)F)C(c1ccccc1)c1ccccc1 (some centres unmarked) [Compound 1h] (Ac-DE[Dip]E[Cha]-X9) 3 µM

Would you kindly share the measured IC50 for CC(=O)N[C@@H](CC(=O)O)C(=O)N[C@@H](CCC(=O)O)C(=O)N[C@H](C(=O)N[C@@H](CCC(=O)O)C(=O)N[C@@H](CC1CCCCC1)C(=O)NC(CC(F)F)C(=O)c1nccs1)C(c1ccccc1)c1ccccc1 (some centres unmarked) [Compound 1k] (Ac-DE[Dip]E[Cha]-X7) ? 1 µM

So what does the record say about IC50 for CC(=O)N[C@@H](CC(=O)O)C(=O)N[C@@H](CCC(=O)O)C(=O)N[C@H](C(=O)N[C@@H](CCC(=O)O)C(=O)N[C@@H](CC1CCCCC1)C(=O)NC(CC(F)F)C(=O)O)C(c1ccccc1)c1ccccc1 (single isomer, unassigned) [Compound 1b (D)] ? 1 µM

# input compound: CC(=O)N[C@@H](CC(=O)O)C(=O)N[C@@H](CCC(=O)O)C(=O)N[C@H](C(=O)N[C@@H](CCC(=O)O)C(=O)N[C@@H](CC1CCCCC1)C(=O)NC(CC(F)F)C(=O)c1ncc[nH]1)C(c1ccccc1)c1ccccc1 (some centres unmarked) [Compound 1l] (Ac-DE[Dip]E[Cha]-X1) ; wanted: its IC50 6 µM

Value lookup for IC50; key = CC(=O)N[C@@H](CC(=O)O)C(=O)N[C@@H](CCC(=O)O)C(=O)N[C@H](C(=O)N[C@@H](CCC(=O)O)C(=O)N[C@@H](CC1CCCCC1)C(=O)NC(CC(F)F)C(=O)c1ccco1)C(c1ccccc1)c1ccccc1 (some centres unmarked) [Compound 1m] (Ac-DE[Dip]E[Cha]-X2) 7 µM
